- TEST PROTOCOL: recombinant UMI read abundance after kanamycin selection (control-corrected) (log10(CPM+1)); higher = more efficient recombination; extreme values may be limits of the assay; sequences stand for … in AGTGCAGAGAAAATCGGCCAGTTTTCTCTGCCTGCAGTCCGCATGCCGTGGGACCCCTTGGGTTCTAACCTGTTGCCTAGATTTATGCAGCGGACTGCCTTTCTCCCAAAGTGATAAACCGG…AGGTTGGTTTCACT; site = the 11-nt donor
# maps each entry to its recombinant UMI read abundance (log10)
ASSAY METRIC: recombinant UMI read abundance (log10)

SEQUENCE INPUT	RECORDED MEASUREMENT
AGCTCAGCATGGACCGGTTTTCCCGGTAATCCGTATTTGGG (site AGCTCAGCTCG)	0.0246
GCCCCTACATGGACCGGTTTTCCCGGTAATCCGTATTTGCC (site GCCCCTACTGG)	2.33
CCAGGGCCATGGACCGGTTTTCCCGGTAATCCGTATTTGTG (site CCAGGGCCTCA)	0.00753
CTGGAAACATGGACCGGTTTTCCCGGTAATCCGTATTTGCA (site CTGGCAACTTG)	0.416
GAGTCATCATGGACCGGTTTTCCCGGTAATCCGTATTTGGT (site GAGTCATCTAC)	1.02
CTGTTACCATGGACCGGTTTTCCCGGTAATCCGTATTTGCT (site CTGCTACCTAG)	0.146
TGATACTCATGGACCGGTTTTCCCGGTAATCCGTATTTGCA (site TCATACTCTTG)	1.29
CGCCTTACATGGACCGGTTTTCCCGGTAATCCGTATTTGCT (site CGCCTTACTAG)	1.57
GCCAAGCCATGGACCGGTTTTCCCGGTAATCCGTATTTGTA (site GCCACGCCTTA)	0.00534
TAGAAAACATGGACCGGTTTTCCCGGTAATCCGTATTTGCA (site TAGAATACTTG)	0
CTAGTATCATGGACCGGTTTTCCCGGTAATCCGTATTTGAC (site CCAGTATCTGG)	0
CATAATACATGGACCGGTTTTCCCGGTAATCCGTATTTGGC (site CATAATACTGC)	1.88
TAATAGACATGGACCGGTTTTCCCGGTAATCCGTATTTGGC (site TAATAGACTGC)	2.02
ACAGTGGCATGGACCGGTTTTCCCGGTAATCCGTATTTGCT (site ACAGTGGCTAG)	2.32
CAAGGCTCATGGACCGGTTTTCCCGGTAATCCGTATTTGAA (site CAAGGCTCTTT)	2.71
GGCCATCCATGGACCGGTTTTCCCGGTAATCCGTATTTGTT (site GGCCATCCTAA)	0.0172
CTAGTCCCATGGACCGGTTTTCCCGGTAATCCGTATTTGCT (site CTAGTCCCTAG)	1.79

###

- TEST PROTOCOL: recombinant barcode read abundance after kanamycin selection (control-corrected) (log10(CPM+1)); higher = more efficient recombination; sequences stand for … in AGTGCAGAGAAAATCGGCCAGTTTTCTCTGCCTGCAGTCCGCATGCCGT…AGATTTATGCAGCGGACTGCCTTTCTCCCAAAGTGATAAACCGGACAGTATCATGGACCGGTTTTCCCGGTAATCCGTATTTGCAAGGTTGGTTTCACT; site = the 11-nt target
Catalogue of recombinant barcode read abundance (log10) readings, one per entry.
ASSAY METRIC: recombinant barcode read abundance (log10)

SEQUENCE INPUT	RECORDED MEASUREMENT
AGTCGTACTTGGGTTCTAACCTGTTGCCT (site AGTCGTACTAG)	0.536
GATTCTCCTTGGGTTCTAACCTGTTGCGT (site GATTCTCCTAC)	0.541
TCGAACCCTTGGGTTCTAACCTGTTGCCT (site TCGAAACCTAG)	0.36
CTGTGAACTTGGGTTCTAACCTGTTGCCT (site CAGTGAACTAG)	0.128
GAGCACCCTTGGGTTCTAACCTGTTGCCA (site GAGCACCCTTG)	1.77
TAGTGCTCTTGGGTTCTAACCTGTTGCCG (site TAGTGCTCTAG)	0.595
GTCGCGTCTTGGGTTCTAACCTGTTGCCT (site GTCGCGGCTAG)	0.392
GCTTGGTCTTGGGTTCTAACCTGTTGCGA (site GCTTGGTCTTC)	1.57
ATCTTATCTTGGGTTCTAACCTGTTGCCT (site ATCTTAACTAG)	0.0526
AGAAGTACTTGGGTTCTAACCTGTTGCGG (site GTAAGTACTCC)	0.0235
TGCGCCTCTTGGGTTCTAACCTGTTGCTG (site TGCGCCTCTCA)	1.26
GACAAACCTTGGGTTCTAACCTGTTGCCT (site GTCAAACCTAA)	0.00743
CCGCTCGCTTGGGTTCTAACCTGTTGCCT (site CCGCTTACTAG)	0.117
AGTGTCACTTGGGTTCTAACCTGTTGCGG (site AGTGTCACTCC)	2.77
GCCGGGTCTTGGGTTCTAACCTGTTGCTT (site GCGGGGTCTAA)	0.092
TAGCCTTCTTGGGTTCTAACCTGTTGCTA (site TAGCCTTCTTA)	0.129
AATGTGTCTTGGGTTCTAACCTGTTGCCT (site AAGGTGTCTAG)	1.01
TCAATCCCTTGGGTTCTAACCTGTTGCCT (site TCCATCCCTAG)	0.048

###

- TEST PROTOCOL: recombinant UMI read abundance after kanamycin selection (control-corrected) (log10(CPM+1)); higher = more efficient recombination; extreme values may be limits of the assay; sequences stand for … in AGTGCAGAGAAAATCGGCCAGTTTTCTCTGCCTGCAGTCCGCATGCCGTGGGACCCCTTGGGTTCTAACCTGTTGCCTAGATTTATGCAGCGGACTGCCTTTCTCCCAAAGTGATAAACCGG…AGGTTGGTTTCACT; site = the 11-nt donor
Label MET when recombinant UMI read abundance (log10) >= 0.01; otherwise NOT MET.

SEQUENCE INPUT	DISCRETE LABEL
CCCCGCACATGGACCGGTTTTCCCGGTAATCCGTATTTGGA (site CCCCGCACTTC)	MET
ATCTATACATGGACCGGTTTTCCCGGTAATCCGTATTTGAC (site ATCTATACTGA)	MET
CCCAATTCATGGACCGGTTTTCCCGGTAATCCGTATTTGCC (site TCCAATTCTGG)	NOT MET
TAACGAGCATGGACCGGTTTTCCCGGTAATCCGTATTTGGG (site TAATGAGCTCC)	NOT MET
GCCAGGACATGGACCGGTTTTCCCGGTAATCCGTATTTGTT (site GCCAGGACTAA)	MET
GGTTAGACATGGACCGGTTTTCCCGGTAATCCGTATTTGAG (site GGTTAGACTCT)	MET
GGATCGGCATGGACCGGTTTTCCCGGTAATCCGTATTTGAC (site GGATCGGCTGT)	MET
AGCTCAGCATGGACCGGTTTTCCCGGTAATCCGTATTTGGC (site AGCTCAGCTAC)	MET
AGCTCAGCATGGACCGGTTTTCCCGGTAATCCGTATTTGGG (site ATCTCAGCTCC)	MET
GCTAAGTCATGGACCGGTTTTCCCGGTAATCCGTATTTGTG (site GCTAAGTCTCA)	MET
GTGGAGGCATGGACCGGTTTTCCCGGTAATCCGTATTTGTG (site GTGGCGGCTCA)	NOT MET
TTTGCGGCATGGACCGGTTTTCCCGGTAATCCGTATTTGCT (site TTTGCCGCTAG)	NOT MET
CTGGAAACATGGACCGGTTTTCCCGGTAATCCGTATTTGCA (site CTGGATACTTG)	MET

###

recombinant barcode read abundance (log10) for assorted sequences
- TEST PROTOCOL: recombinant barcode read abundance after kanamycin selection (control-corrected) (log10(CPM+1)); higher = more efficient recombination; sequences stand for … in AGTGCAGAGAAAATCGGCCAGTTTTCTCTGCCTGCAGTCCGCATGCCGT…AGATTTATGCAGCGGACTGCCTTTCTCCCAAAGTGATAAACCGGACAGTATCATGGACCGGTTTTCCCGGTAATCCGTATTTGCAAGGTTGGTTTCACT; site = the 11-nt target
ASSAY METRIC: recombinant barcode read abundance (log10)

SEQUENCE INPUT	RECORDED MEASUREMENT
AGCCCGCCTTGGGTTCTAACCTGTTGCCT (site GGCCCGCCTAG)	0.178
AACTATCCTTGGGTTCTAACCTGTTGCAT (site AACTATCCTAT)	0.227
ACCATACCTTGGGTTCTAACCTGTTGCAT (site TAGGATTCTGC)	0.124
ATGGTGCCTTGGGTTCTAACCTGTTGCCT (site ATGGTGTCTAG)	2.03
CATCGGGCTTGGGTTCTAACCTGTTGCAG (site CTTCGGGCTCT)	0.292
GCGCGGCCTTGGGTTCTAACCTGTTGCCT (site TCGCGGCCTAG)	0.0177
